From: the Human Domainome abundance scans (Beltran et al. 2025)

B1: Homeobox protein cut-like 1, residues 548 to 629; numbered along this chain, P39880 (parent)
chain: GEEMDTAEIARQVKEQLIKHNIGQRIFGHYVLGLSQGSVSEILARPKPWNKLTVRGKEPFHKMKQFLSDEQNILALRSIQGR

# Variants of: B1
# Protocol Details: abundance fitness (aPCA) (normalised: wild type 0, dead -1); higher = more abundant; growth selection in yeast, the domain comes from the species named
# Reported Conditions: Homo sapiens
Endpoint Label: abundance fitness

- V31Y: -0.2
- K51G: -0.198
- I79G: -0.203
